Reference source for all entries: patent EP3635128B1

Target System: h-meprin α (Homo sapiens, UniProt Q16819)
Construct: His-tag (N); made in house; host or cells: Drosophila melanogaster S2 cells, stably transfected (pMT/BiP/V5-His C), protein harvested from the culture medium
Sequence (Q16819 66-746): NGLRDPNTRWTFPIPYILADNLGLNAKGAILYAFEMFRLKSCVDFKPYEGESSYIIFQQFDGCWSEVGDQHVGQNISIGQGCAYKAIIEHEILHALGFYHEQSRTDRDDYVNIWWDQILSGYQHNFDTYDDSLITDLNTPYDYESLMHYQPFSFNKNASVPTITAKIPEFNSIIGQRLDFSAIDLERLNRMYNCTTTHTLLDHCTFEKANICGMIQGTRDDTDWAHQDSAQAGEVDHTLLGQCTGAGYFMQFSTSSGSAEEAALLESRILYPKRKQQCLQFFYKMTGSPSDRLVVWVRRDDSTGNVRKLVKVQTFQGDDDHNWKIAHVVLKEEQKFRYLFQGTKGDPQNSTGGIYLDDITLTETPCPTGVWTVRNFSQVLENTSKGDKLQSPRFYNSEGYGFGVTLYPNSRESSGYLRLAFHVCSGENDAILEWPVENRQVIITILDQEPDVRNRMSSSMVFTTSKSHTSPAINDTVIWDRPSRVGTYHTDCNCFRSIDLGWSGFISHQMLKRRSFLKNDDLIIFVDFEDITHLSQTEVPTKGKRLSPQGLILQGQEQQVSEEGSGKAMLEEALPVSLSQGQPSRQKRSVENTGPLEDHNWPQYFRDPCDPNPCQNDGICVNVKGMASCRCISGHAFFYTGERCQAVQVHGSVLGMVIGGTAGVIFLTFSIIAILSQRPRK
Procedure Text: non-coupled assay with internally quenched fluorogenic substrate
Type: biochemical
Assay Conditions: fluorogenic substrate Abz-YVADAPK(Dpn)G-OH; unpublished data
Quantity: IC50 (nM)
Record the value in nM, omitting the unit from your answer.

IN: Please look up its IC50: CCCCC[C@H](CC(=O)NO)C(=O)N[C@H](C(=O)N1CCC[C@H]1CO)C(C)C
OUT: 9.6

---

Target System: h-meprin β (Homo sapiens)
Sequence (Q16820 62-701): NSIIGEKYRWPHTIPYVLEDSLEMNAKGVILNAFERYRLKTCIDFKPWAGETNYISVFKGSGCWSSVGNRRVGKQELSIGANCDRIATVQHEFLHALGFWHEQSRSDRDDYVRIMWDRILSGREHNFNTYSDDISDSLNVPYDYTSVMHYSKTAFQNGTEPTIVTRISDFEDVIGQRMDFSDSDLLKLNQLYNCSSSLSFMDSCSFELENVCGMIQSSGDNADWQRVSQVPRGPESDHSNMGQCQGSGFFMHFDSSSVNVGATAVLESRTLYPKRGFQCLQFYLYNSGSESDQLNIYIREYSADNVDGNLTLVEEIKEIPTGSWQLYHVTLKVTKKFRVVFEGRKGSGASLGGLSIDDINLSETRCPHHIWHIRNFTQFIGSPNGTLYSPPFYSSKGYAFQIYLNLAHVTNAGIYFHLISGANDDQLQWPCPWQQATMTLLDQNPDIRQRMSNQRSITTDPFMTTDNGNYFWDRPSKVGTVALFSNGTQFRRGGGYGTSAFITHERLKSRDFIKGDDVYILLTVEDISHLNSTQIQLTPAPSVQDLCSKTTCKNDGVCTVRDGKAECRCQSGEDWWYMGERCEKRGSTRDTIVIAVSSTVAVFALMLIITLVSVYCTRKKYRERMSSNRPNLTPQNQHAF
Procedure Text: coupled continuous spectrophotometric assay with auxiliary enzyme PtP and chromogenic pNA substrates
Format: biochemical
Set-up: His6 (N, cleaved yes); made in house; host or cells: Pichia pastoris X33 (pPICZαC), protein harvested from the fermenter supernatant
Assay Conditions: chromogenic substrate KKGYVADAP-pNA, coupled continuous assay; means ± S.D.
Quantity: IC50 (nM)
Record the value in nM, omitting the unit from your answer.

IN: IC50 of CCCCC[C@H](CC(=O)NO)C(=O)N[C@H](C(=O)N1CCC[C@H]1CO)C(C)C on h-meprin β (Homo sapiens)?
OUT: 760

---

Target System: h-meprin α (Homo sapiens, UniProt Q16819)
Construct: His-tag (N); made in house; host or cells: Drosophila melanogaster S2 cells, stably transfected (pMT/BiP/V5-His C), protein harvested from the culture medium
Procedure Text: coupled continuous spectrophotometric assay with auxiliary enzyme PtP and chromogenic substrate KKGYVADAP-pNA
Assay type: biochemical
Assay Conditions: chromogenic substrate KKGYVADAP-pNA, coupled continuous assay; means ± S.D.
Quantity: IC50 (nM)
Record the value in nM, omitting the unit from your answer.

IN: Please look up its IC50: CCCCC[C@H](CC(=O)NO)C(=O)N[C@H](C(=O)N1CCC[C@H]1CO)C(C)C [actinonin]
OUT: 12

---

Quantity: Ki (nM)
Record the value in nM, omitting the unit from your answer.

IN: Ki of CCCCC[C@H](CC(=O)NO)C(=O)N[C@H](C(=O)N1CCC[C@H]1CO)C(C)C on h-meprin α (Homo sapiens, UniProt Q16819)?
OUT: 3.2
